- Procedure details: Oral bioavailability in Han Wistar rat at 2 mg/kg
- Format: ADME, organism-based
- Assay context: in vivo
Endpoint label: bioavailability

| Smiles string | Endpoint label | Value observed |
| --- | --- | --- |
| O=C(Cc1ccccc1)Nc1nnc(N[C@@H]2CCN(c3nccnn3)C2)s1 | bioavailability | 83% |

---

- Procedure details: Clearance in Han Wistar rat at 2 mg/kg, po or 0.5 mg/kg, iv
- Assay type: ADME, organism-based
- Assay context: in vivo

| Smiles string | clearance |
| --- | --- |
| O=C(Cc1ccccc1)Nc1nnc(N[C@@H]2CCN(c3nccnn3)C2)s1 | 54 mL/min/kg |

---

- Procedure details: Thermodynamic aqueous solubility of the compound at pH 7.4
- Assay type: physicochemical
- Assay context: read-out: Therm_solubility

| Smiles string | solubility thermodynamic |
| --- | --- |
| O=C(Cc1ccccc1)Nc1nnc(CCCc2nnc(NC(=O)Cc3ccccc3)s2)s1 | < 0.6 µM |
| O=C(Cc1ccccc1)Nc1nnc(NCCNc2nnc(NC(=O)Cc3ccccc3)s2)s1 | < 3 µM |
| O=C(Cc1ccccc1)Nc1nnc(CCCCCc2nnc(NC(=O)Cc3ccccc3)s2)s1 | < 0.6 µM |
| O=C(Cc1ccccc1)Nc1nnc(N[C@@H]2CCN(c3nnc(NC(=O)Cc4ccccc4)s3)C2)s1 | < 0.8 µM |

---

- Procedure details: Volume of distribution at steady state in dog at 1 mg/kg, po or 0.5 mg/kg, iv
- Type: ADME, organism-based, Canis lupus familiaris
- Assay context: in vivo, read-out: Vdss
Endpoint label: Vd (L/kg)

| Smiles string | Unit of measure | Value observed |
| --- | --- | --- |
| CO[C@H](C(=O)Nc1nnc(N[C@@H]2CCN(c3cccnn3)C2)s1)c1ccccc1 | L/kg | 0.3 |

---

Each item that follows carries a reported clearance.
- Procedure details: Clearance in iv or po dosed Han Wistar rat
- Format: ADME, organism-based
- Assay context: in vivo

| Smiles string | clearance |
| --- | --- |
| CO[C@H](C(=O)Nc1nnc(N[C@@H]2CCN(c3cccnn3)C2)s1)c1ccccc1 | 35 mL/min/kg |
| O=C(Cc1ccccc1)Nc1nnc(N[C@@H]2CCN(c3cccnn3)C2)s1 | 50 mL/min/kg |
| C[C@H](C(=O)Nc1nnc(N[C@@H]2CCN(c3cccnn3)C2)s1)c1ccccc1 | 55 mL/min/kg |
| O=C(Cc1cccc(OC(F)(F)F)c1)Nc1ccc(CCCCc2nnc(NC(=O)Cc3ccccn3)s2)nn1 | 14 mL/min/kg |
| CO[C@H](C(=O)Nc1nnc(N[C@@H]2CCN(c3nccnn3)C2)s1)c1ccccc1 | 12 mL/min/kg |

---

- Procedure details: Clearance in CD1 mouse at 100 mg/kg, po
- Type: ADME, organism-based
- Assay context: in vivo

| Smiles string | CL/F, mL/min/kg |
| --- | --- |
| O=C(Cc1ccccc1)Nc1nnc(N[C@@H]2CCN(c3cccnn3)C2)s1 | 101 |

---

Each item that follows carries a reported bioavailability.
- Procedure details: Oral bioavailability in dog at 1 mg/kg
- Type: ADME, organism-based, Canis lupus familiaris
- Assay context: in vivo

| Smiles string | Unit of measure | bioavailability |
| --- | --- | --- |
| CO[C@H](C(=O)Nc1nnc(N[C@@H]2CCN(c3cccnn3)C2)s1)c1ccccc1 | % | 60 |
| CO[C@H](C(=O)Nc1nnc(N[C@@H]2CCN(c3nccnn3)C2)s1)c1ccccc1 | % | 90 |

---

- Procedure details: Drug level in SCID mouse plasma xenografted with human NCI-H1703 cells at 100 mg/kg, po administered once daily via gavage for 21 days measured 24 hrs post-last dose
- Format: ADME, organism-based

| Smiles string | Unit of measure | concentration at 24 h |
| --- | --- | --- |
| CO[C@H](C(=O)Nc1nnc(N[C@@H]2CCN(c3cccnn3)C2)s1)c1ccccc1 | µM | 3.63 |

---

- Procedure details: Clearance in dog at 1 mg/kg, po or 0.5 mg/kg, iv
- Format: ADME, organism-based, Canis lupus familiaris
- Assay context: in vivo
Each item that follows carries a reported clearance.

| Smiles string | Unit of measure | clearance |
| --- | --- | --- |
| CO[C@H](C(=O)Nc1nnc(N[C@@H]2CCN(c3nccnn3)C2)s1)c1ccccc1 | mL/min/kg | 1 |
| CO[C@H](C(=O)Nc1nnc(N[C@@H]2CCN(c3cccnn3)C2)s1)c1ccccc1 | mL/min/kg | 4 |

---

- Procedure details: Intrinsic clearance in human microsomes
- Type: ADME, Microsome
Each item that follows carries a reported microsomal CLint.

| Smiles string | Comparison operator | microsomal CLint, µL/min/mg |
| --- | --- | --- |
| O=C(NCc1ccccc1)c1nnc(N[C@@H]2CCN(c3nccnn3)C2)s1 | = | 3 |
| C[C@H](C(=O)Nc1nnc(N[C@@H]2CCN(c3cccnn3)C2)s1)c1ccccc1 | < | 3 |
| O=C(Cc1ccccc1)Nc1nnc(N[C@@H]2CCN(c3nccnn3)C2)s1 | < | 3 |
| O=C(NCc1ccccc1)c1nnc(N[C@@H]2CCN(c3cccnn3)C2)s1 | < | 3 |
| CO[C@H](C(=O)Nc1nnc(N[C@@H]2CCN(c3nccnn3)C2)s1)c1ccccc1 | = | 3 |
| O=C(Cc1ccccc1)Nc1nnc(N[C@@H]2CCN(c3cccnn3)C2)s1 | = | 3 |
| O=C(Cc1cccc(OC(F)(F)F)c1)Nc1ccc(CCCCc2nnc(NC(=O)Cc3ccccn3)s2)nn1 | = | 15 |
| CO[C@H](C(=O)Nc1nnc(N[C@@H]2CCN(c3cccnn3)C2)s1)c1ccccc1 | < | 3 |

---

Each item that follows carries a reported hepatocyte CLint.
- Procedure details: Intrinsic clearance in human hepatocytes assessed per million cells
- Type: ADME, cell-based, Hepatocyte
- Assay context: read-out: CLH

| Smiles string | Comparison operator | hepatocyte CLint (µL/min/1e6 cells) |
| --- | --- | --- |
| O=C(Cc1cccc(OC(F)(F)F)c1)Nc1ccc(CCCCc2nnc(NC(=O)Cc3ccccn3)s2)nn1 | = | 8 |
| CO[C@H](C(=O)Nc1nnc(N[C@@H]2CCN(c3cccnn3)C2)s1)c1ccccc1 | < | 1 |
| CO[C@H](C(=O)Nc1nnc(N[C@@H]2CCN(c3nccnn3)C2)s1)c1ccccc1 | = | 3 |
| O=C(Cc1ccccc1)Nc1nnc(N[C@@H]2CCN(c3cccnn3)C2)s1 | < | 1 |

---

- Procedure details: Lipophilicity, log D of the compound at pH 7.4
- Assay type: physicochemical
- Assay context: buffer, read-out: logD
Criterion: logD meeting or surpassing 2. Met: rule met. Not met: rule not met.

| Compound | Class |
| --- | --- |
| CN1CCC(CC(=O)Nc2nnc(N3CC[C@@H](Nc4nnc(NC(=O)Cc5ccccc5)s4)C3)s2)CC1 | rule not met |
| Nc1nnc(N[C@@H]2CCN(c3ccc(NC(=O)Cc4ccccc4)nn3)C2)s1 | rule not met |
| O=C(Cc1ccccc1)Nc1nnc(N[C@@H]2CCN(c3nnc(NC(=O)CC4CCOCC4)s3)C2)s1 | rule met |
| CC(=O)N1CCCCC1CC(=O)Nc1nnc(N2CC[C@@H](Nc3nnc(NC(=O)Cc4ccccc4)s3)C2)s1 (stereo partly specified) | rule met |
| O=C(Cc1ccccc1)Nc1nnc(N[C@@H]2CCC[C@H]2Nc2nnc(NC(=O)Cc3ccccc3)s2)s1 | rule met |
| O=C(Cc1ccccc1)Nc1nnc(N[C@@H]2CCN(c3nncs3)C2)s1 | rule met |
